Assayed system: SARS2 protease (Severe acute respiratory syndrome coronavirus 2, UniProt P0DTD1)
Assay text: SARS-CoV-2 protease inhibition assay (SARS2 FRET protease assay)
Format: biochemical
Cond: Table E; SARS-CoV-2 protease inhibition; read-out: IC50
Value type: IC50

Use these answered entries as a reference point.
Compound: CC(C)CC1NC(=O)OC(Cc2ccccc2)CC/C=C/CC(C(=O)N(C)C)CC(C=O)NC1=O (stereo in doubt)
IC50: 137 µM
//
Compound: CCCCCCCC1CCCC/C=C/CC(C(=O)NC)C[C@@H](CO)NC(=O)[C@H](CC(C)C)NC1=O (stereo partly drawn)
IC50: > 200 µM
//
Compound: CN(C)C(=O)CC[C@@H](C=O)NC(=O)[C@H](CC1CCCCC1)NC(=O)OCc1cccc(Cl)c1
IC50: > 200 µM
//
Compound: CCOC(=O)NCCN(C)C(=O)CC[C@@H](C=O)NC(=O)[C@H](CC1CCCCC1)NC(=O)OCc1cccc(Cl)c1 (stereo in doubt)
IC50: > 200 µM
//
Compound: CCS(=O)(=O)NCCN(C)C(=O)CC[C@@H](C=O)NC(=O)[C@H](CC1CCCCC1)NC(=O)OCc1cccc(Cl)c1 (stereo in doubt)
IC50: 36 µM

Pending compound:
Enquiry: Could you tell me which IC50 is on file for CCOC(=O)NCCN(C)C(=O)CC[C@H](NC(=O)[C@H](CC1CCCCC1)NC(=O)OCc1cccc(Cl)c1)C(=O)N(C)OC (stereo in doubt) ?
Return: > 200 µM
